Test system: mutated ecdysone receptor-based gene switch
test_summary: In vivo SEAP induction, ligand by IP injection
Parameters: species or system C57BL/6 mouse
test_context: mouse serum, IP 2.6 μmol ligand 3 days after electroporation, day 2 after ligand
quantity_name: Secreted Alkaline Phosphatase (percentage of GS ™-E ligand induction) Day 2

The examples below pair each entry with its known result.
compound: CCCC(N(NC(=O)c1cccc(OC)c1CC)C(=O)c1cc(OC)c(C)c(OC)c1)C(C)(C)C (centres unmarked) [RG-115829]
reported: 72 percentage of GS ™-E ligand induction

compound: CCc1c(OC)cccc1C(=O)NN(C(=O)c1cc(C)cc(C=NNC(=O)C(N)=O)c1)C(C)(C)C [RG-115613]
reported: 2 percentage of GS ™-E ligand induction

Query: Find the recorded Secreted Alkaline Phosphatase (percentage of GS ™-E ligand induction) Day 2 belonging to COc1cc(C(=O)N(NC(=O)c2ccc3c(c2C)OCCO3)C(C)(C)C)cc(OC)c1C [RG-115637] and report it.
Result: 12 percentage of GS ™-E ligand induction
